assay: inhibitors of polyQ protein aggregation (AID 1604); conditions: polyglutamine-induced protein aggregation inhibition assay; stronger effect = higher value; tested at 2.5 µM
Mark criterion met for reported inhibition of aggregation of 50% or greater; mark criterion not met for anything smaller.

Completed entries (count: 4):
compound | label.class
C[C@@H]1O[C@@H](O[C@H]2C[C@@H](O)[C@]3(CO)C4C(CC[C@]3(O)C2)[C@@]2(O)CC[C@H](C3=CC(=O)OC3)[C@@]2(C)C[C@H]4O)[C@H](O)[C@H](O)[C@H]1O (some centres not stated) | criterion met
C=C1C2CC[C@H]3[C@]4(C)C[C@H](OC5OC(CO)C(OS(=O)(=O)O)C(OS(=O)(=O)O)C5OC(=O)CC(C)C)C[C@@H](C(=O)O)[C@H]4CC[C@]3(C2)[C@H]1O (some centres not stated) | criterion met
O=C1C=C2C(=CCOC2O)O1 (configuration not stated) | criterion not met
CCC1(c2ccccc2)C(=O)NC(=O)NC1=O | criterion not met

Query :: Is the recorded value of inhibition of aggregation equal to or greater than 50% for this compound? O=c1c2ccccc2[se]n1-c1ccccc1
Result :: criterion met

Query :: Reported inhibition of aggregation reaches at least 50% for CC[C@@]1(O)C(=O)OCc2c1cc1n(c2=O)Cc2cc3ccccc3nc2-1 ?
Result :: criterion not met

Query :: Could you tell me if the measured inhibition of aggregation of CC[C@@H]1/C=C/C=C/C[C@H](C)[C@@H](O)[C@](C)(O)C(=O)[C@H](C)[C@@H](O)[C@H](C)C(=O)[C@H](C)[C@@H](O)[C@H](C)/C=C/C(=O)O[C@H]2[C@@H](C)[C@@H](CC1)O[C@@]1(CC[C@@H](C)[C@@H](C[C@H](C)O)O1)[C@@H]2C reaches 50% or more?
Result :: criterion not met
